The reported numbers originate from PubChem BioAssay (NCI).

Tested on: LOX IMVI melanoma
test-method-notes: NCI-60 one-dose screen, 48 h
experimental-setup: 10 µM unless noted
Procedure: Growth inhibition of the LOX IMVI human tumor cell line is measured as a screen for anti-cancer activity. Cells are grown in 96 well plates and exposed to the test compound for 48 hours. Compounds are tested at a single concentration, which is 10^-5 M for most compounds. The reported endpoint is percent growth (GI% or GIPRCNT), where numbers from 0 - 100% represent growth inhibition, and numbers from -100% - 0 represent cell death. For example, a value of 40 represents 60% growth inhibition. […]
The panel holds about 83,000 compounds, 20% with a hit somewhere; the sample as a whole holds those more often. Calls of active or inactive are those of the source. How the source made its calls: active means growth percent below 10; inactive means the rest.
Give your call using only these classes: 1 (active), -1 (inactive)

Observe how each entry below is paired with its result.
Qu. Hey, what did the test say about `Cc1ccc(NC(=S)/N=c2/n(-c3ccccc3)nc3n2CCN3C2=NCCN2)cc1` ?
Ans. -1

Qu. Hey, what did the test say about CC1Cc2ccc(OCCN(C)C)cc2C1=O (stereo not given) ?
Ans. -1

Qu. Hey, what did the test say about CC1Cc2c(Cl)ncnc2N(C)c2ccccc21 (stereo not given) ?
Ans. 1

Then this molecule:
Qu. Hey, what did the test say about O=C1/C(=C\c2cn(CC(O)CN3CCCCC3)c3ccccc23)c2ccccc2N1c1c(Cl)cccc1Cl (stereo not given) ?
Ans. 1
